Biological target: GOPC, Q9HD26
Experiment: holdup assay
Set-up: key: below the threshold = too weak to quantify, mostly under pKd 3.1 to 4
Settings: plain residues with an end cap or a label only (N-terminal biotin on a linker: ado-ado)
Value Type: pKd

Sample records with pKd:
Binder: RRRESYSTTV [EVI5, O60447]
pKd: 4.36
--
Binder: KKMPSIESDV [GRIN2A, Q12879]
pKd: below the threshold
--
Binder: RRLPGKETMA [GRIK2, Q13002]
pKd: below the threshold
--
Binder: EVEEFPETSV [TRPV3, Q8NET8]
pKd: 4.22
--
Binder: YRLAQESGLV [ABCC6, O95255]
pKd: below the threshold
--
Binder: TASPAKETSF [SLC2A7, Q6PXP3]
pKd: below the threshold
--
Binder: YYKRPVQEWV [MMP24, Q9Y5R2]
pKd: below the threshold
--
Binder: VRNLPESEEL [MYOZ3, Q8TDC0]
pKd: below the threshold
--
Binder: VYPNAKVELV [PDLIM4_iso2, P50479;P50479-1]
pKd: below the threshold
--
Binder: SARSRLSSNL [HCN2, Q9UL51]
pKd: 3.5

Exam item: Please report pKd for the following binder: VDSTVKVWTC [TRAF7, Q6Q0C0]
Marked response: below the threshold

Exam item: Please report pKd for the following binder: IKAIVDLTGL [TRAF2, Q12933]
Marked response: below the threshold

Exam item: Please report pKd for the following binder: DDPSTAETVL [ABCA7, Q8IZY2]
Marked response: below the threshold

Where do these numbers come from? They come from paper PMC9482650.
